Data origin: ChEMBL document CHEMBL4219148

# assay.overview: AUC (0 to 48 hrs) in monkey at 10 mg/kg, po
# Assay type: ADME, organism-based, Macaca mulatta
# Parameters: time < 48 hr, dose 10 mg/kg, route oral
# run.parameters: rhesus monkey, in vivo

molecule	AUC(0-t) at 48 h (µM·h)
Cc1cn2c(-c3cn[nH]c3)cnc2c(Nc2cc(C(NC(C)(C)C)c3ccccn3)ns2)n1 (single isomer, unassigned; (+))	4

---

# experimental.target: Calcium/calmodulin-dependent protein kinase type IV (Homo sapiens)
# Sequence (Q16566 whole entry): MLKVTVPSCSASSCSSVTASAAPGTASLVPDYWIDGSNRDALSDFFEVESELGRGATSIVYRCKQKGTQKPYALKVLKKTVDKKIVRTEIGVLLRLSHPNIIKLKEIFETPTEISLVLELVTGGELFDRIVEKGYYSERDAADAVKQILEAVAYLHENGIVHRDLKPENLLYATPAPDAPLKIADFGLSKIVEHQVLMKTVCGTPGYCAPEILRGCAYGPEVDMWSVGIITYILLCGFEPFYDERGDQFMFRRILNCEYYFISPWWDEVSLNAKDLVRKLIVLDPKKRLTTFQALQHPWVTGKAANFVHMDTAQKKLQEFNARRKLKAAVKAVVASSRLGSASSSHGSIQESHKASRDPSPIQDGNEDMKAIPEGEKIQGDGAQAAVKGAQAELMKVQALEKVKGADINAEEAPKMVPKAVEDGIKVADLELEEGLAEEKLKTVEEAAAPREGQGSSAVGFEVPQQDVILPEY
# assay.overview: Inhibition of CAMK4 (unknown origin)
As shown below, each of these molecules has a reported IC50 value.

molecule	IC50
Cc1cn2c(-c3cn[nH]c3)cnc2c(Nc2cc(Cc3ccccn3)ns2)n1	> 500 nM
CCN(CCO)Cc1cc(Nc2nc(C)cn3c(-c4cn[nH]c4)cnc23)sn1	> 500 nM
Cc1cn2c(-c3cn[nH]c3)cnc2c(Nc2cc(C(NC(C)(C)C)c3ccccn3)ns2)n1 (single isomer, unassigned; (+))	> 1000 nM
